Experiment: PK parameters in male mice (Table 9)
Type: in vivo
Settings: ICR, mouse, in vivo, IV 2 mg/kg, read-out: Vss
Readout Label: Vd (L/kg)
# value in L/kg; strip the unit string

The molecule listed as N#Cc1ccc(O[C@H]2CC[C@H](NC(=O)c3ccc(N4CCN(C5CN(c6ccc7c(c6)C(=O)N(C6CCC(=O)NC6=O)C7=O)C5)CC4)cc3)CC2)cc1Cl (stereo partly shown) has a reported Vd of 2.23

* * *

Assay: PK parameters in male mice (Table 9)
Assay type: in vivo
Conditions: ICR, mouse, in vivo, IV 1 mg/kg, read-out: Vss
Documented Vd across a set of compounds
Hi! Could you send only the number? It should be in L/kg, unit omitted.

• CN(c1ccc(C#N)c(Cl)c1)[C@H]1CC[C@H](NC(=O)c2ccc(N3CCN(CC4CCN(c5ccc6c(c5)C(=O)N(C5CCC(=O)NC5=O)C6=O)CC4)CC3)cc2)CC1 (some centres unmarked) [compound 233] = 16.8
• N#Cc1ccc(O[C@H]2CC[C@H](NC(=O)c3ccc(N4CCN(C5CCN(c6ccc7c(c6)C(=O)N(C6CCC(=O)NC6=O)C7=O)CC5)CC4)cc3)CC2)cc1Cl (some centres unmarked) [compound 222] = 4.75
• CN(c1ccc(C#N)c(Cl)c1)[C@H]1CC[C@H](NC(=O)c2ccc(N3CCN(C4CCN(c5ccc6c(c5)C(=O)N(C5CCC(=O)NC5=O)C6=O)CC4)CC3)cc2)CC1 (some centres unmarked) [Cpd. No. 235] = 2.64
• N#Cc1ccc(O[C@H]2CC[C@H](NC(=O)c3ccc(N4CCC(N5CCN(c6ccc7c(c6)C(=O)N(C6CCC(=O)NC6=O)C7=O)CC5)CC4)cc3)CC2)cc1Cl (some centres unmarked) [compound 223] = 3.04

Alright, here's another compound for you.
The value of Vd measured for the compound CCN(c1ccc(C#N)c(Cl)c1)[C@H]1CC[C@H](NC(=O)c2ccc(N3CCC(N4CCN(c5ccc6c(c5)C(=O)N(C5CCC(=O)NC5=O)C6=O)CC4)CC3)cc2)CC1 (some centres unmarked) [compound 231] turned out to be 4.34

* * *

Molecular target: AR protein (Homo sapiens, UniProt P10275)
Construct: endogenous in cells; host or cells: VCaP
Sequence (P10275 whole entry): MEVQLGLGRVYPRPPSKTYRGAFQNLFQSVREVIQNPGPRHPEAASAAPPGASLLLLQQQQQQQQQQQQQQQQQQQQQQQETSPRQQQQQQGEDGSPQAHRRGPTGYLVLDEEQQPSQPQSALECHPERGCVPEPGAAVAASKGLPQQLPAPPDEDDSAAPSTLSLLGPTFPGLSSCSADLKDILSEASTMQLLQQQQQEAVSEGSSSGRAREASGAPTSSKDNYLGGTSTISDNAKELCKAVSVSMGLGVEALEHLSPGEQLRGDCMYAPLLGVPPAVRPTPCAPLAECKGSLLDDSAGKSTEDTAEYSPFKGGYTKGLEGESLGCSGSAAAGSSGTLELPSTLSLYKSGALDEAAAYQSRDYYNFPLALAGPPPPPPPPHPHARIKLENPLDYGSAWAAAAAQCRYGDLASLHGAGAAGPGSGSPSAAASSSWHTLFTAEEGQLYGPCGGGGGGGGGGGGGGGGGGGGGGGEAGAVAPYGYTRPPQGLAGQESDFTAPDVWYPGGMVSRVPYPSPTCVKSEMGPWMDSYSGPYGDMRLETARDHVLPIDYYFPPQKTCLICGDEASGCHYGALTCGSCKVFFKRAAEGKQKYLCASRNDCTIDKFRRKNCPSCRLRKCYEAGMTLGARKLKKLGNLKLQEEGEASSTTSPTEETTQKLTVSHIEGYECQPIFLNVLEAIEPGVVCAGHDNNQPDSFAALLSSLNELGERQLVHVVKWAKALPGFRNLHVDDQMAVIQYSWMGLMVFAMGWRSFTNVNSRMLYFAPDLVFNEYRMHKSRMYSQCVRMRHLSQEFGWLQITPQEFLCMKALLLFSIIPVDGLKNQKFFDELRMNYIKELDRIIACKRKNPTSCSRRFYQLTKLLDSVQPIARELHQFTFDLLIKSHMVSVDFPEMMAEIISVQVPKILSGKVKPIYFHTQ
Experiment: Western blotting of AR protein degradation in VCaP cells
Format: cell-based
Conditions: 0.1 μM
Readout Label: % AR protein degradation in VCaP Cells
Remember to quote the unit after the number.

• N#Cc1ccc(O[C@H]2CC[C@H](NC(=O)c3ccc(NCCCCCCCCCCCNc4ccc5c(c4)C(=O)N(C4CCC(=O)NC4=O)C5=O)cc3)CC2)cc1Cl (some centres unmarked) = 39%

# % AR protein degradation in VCaP Cells (compound: N#Cc1ccc(O[C@H]2CC[C@H](NC(=O)c3ccc(N4CCN(CCNc5ccc6c(c5)C(=O)N(C5CCC(=O)NC5=O)C6=O)CC4)cc3)CC2)cc1Cl (some centres unmarked) ) is 39%

For this compound ( N#Cc1ccc(O[C@H]2CC[C@H](NC(=O)c3ccc(N4CCN(CCCCNc5ccc6c(c5)C(=O)N(C5CCC(=O)NC5=O)C6=O)CC4)cc3)CC2)cc1Cl (some centres unmarked) ), measured % AR protein degradation in VCaP Cells is 80%

Consider N#Cc1ccc(O[C@H]2CC[C@H](NC(=O)c3ccc(NCCCCCCCCCCNc4ccc5c(c4)C(=O)N(C4CCC(=O)NC4=O)C5=O)cc3)CC2)cc1Cl (some centres unmarked) . Its measured % AR protein degradation in VCaP Cells is 1%

Just so you know, measured % AR protein degradation in VCaP Cells for CN(c1ccc(C#N)c(Cl)c1)[C@H]1CC[C@H](NC(=O)c2ccc(N3CC(N4CCN(c5ccc6c(c5)C(=O)N(C5CCC(=O)NC5=O)C6=O)CC4)C3)cc2)CC1 (some centres unmarked) came out at 88%

* * *

Assay: PK parameters in male mice (Table 9)
Format: in vivo
Settings: IV 1 mg/kg
Binary classification by T1/2, with 8 h as an inclusive lower bound for condition met; all other cases are condition not met.

Answered cases to consult:
• CN(c1ccc(C#N)c(Cl)c1)[C@H]1CC[C@H](NC(=O)c2ccc(N3CCC(N4CCN(c5ccc6c(c5)C(=O)N(C5CCC(=O)NC5=O)C6=O)CC4)CC3)cc2)CC1 (stereo partly shown) [compound 230] = condition not met
• CN(c1ccc(C#N)c(Cl)c1)[C@H]1CC[C@H](NC(=O)c2ccc(N3CC(CN4CCN(c5ccc6c(c5)C(=O)N(C5CCC(=O)NC5=O)C6=O)CC4)C3)cc2)CC1 (stereo partly shown) [compound 239] = condition met
• CN(c1ccc(C#N)c(Cl)c1)[C@H]1CC[C@H](NC(=O)c2ccc(N3CC(N4CCN(c5ccc6c(c5)C(=O)N(C5CCC(=O)NC5=O)C6=O)CC4)C3)cc2)CC1 (stereo partly shown) [compound 240] = condition not met
• CN(c1ccc(C#N)c(Cl)c1)[C@H]1CC[C@H](NC(=O)c2ccc(N3CCN(C4CCN(c5ccc6c(c5)C(=O)N(C5CCC(=O)NC5=O)C6=O)CC4)CC3)cc2)CC1 (stereo partly shown) [Cpd. No. 235] = condition not met
• N#Cc1ccc(O[C@H]2CC[C@H](NC(=O)c3ccc(N4CCC(N5CCN(c6ccc7c(c6)C(=O)N(C6CCC(=O)NC6=O)C7=O)CC5)CC4)cc3)CC2)cc1Cl (stereo partly shown) [compound 223] = condition not met
• CN(c1ccc(C#N)c(Cl)c1)[C@H]1CC[C@H](NC(=O)c2ccc(N3CCC(CN4CCN(c5ccc6c(c5)C(=O)N(C5CCC(=O)NC5=O)C6=O)CC4)CC3)cc2)CC1 (stereo partly shown) [compound 234] = condition met

Field: next compound
Given the entry CN(c1ccc(C#N)c(Cl)c1)[C@H]1CC[C@H](NC(=O)c2ccc(N3CCN(CC4CN(c5ccc6c(c5)C(=O)N(C5CCC(=O)NC5=O)C6=O)C4)CC3)cc2)CC1 (stereo partly shown) [compound 237] , answer whether its T1/2 meets or surpasses 8 h.
condition not met

* * *

Test: PK parameters in male mice (Table 9)
Type: in vivo
Details: ICR, mouse, in vivo, IV 2 mg/kg, read-out: AUC(0-t)
Protocol: The pharmacokinetics (PK) of representative Compounds of the Disclosure were evaluated in mice or rats to provide an assessment of their oral bioavaibility. All animal experiments were performed under the guidelines of the University of Michigan Committee for Use and Care of Animals and using an approved animal protocol.
Readout Label: AUC(0-t) (ng·h/mL)
The answer is to be given in ng·h/mL; state only the numeric part.

AUC(0-t) in this record for N#Cc1ccc(O[C@H]2CC[C@H](NC(=O)c3ccc(N4CCN(C5CN(c6ccc7c(c6)C(=O)N(C6CCC(=O)NC6=O)C7=O)C5)CC4)cc3)CC2)cc1Cl (stereo partly shown) : 6760

* * *

Target: AR protein (Homo sapiens, UniProt P10275)
Construct: endogenous in cells; host or cells: VCaP
Experiment: Western blotting of AR protein degradation in VCaP cells
Type: cell-based
Conditions: 0.001 μM
Listed below: % AR protein degradation in VCaP Cells values for each entry.
Lab book: enter the figure in %, no units written.

- N#Cc1ccc(O[C@H]2CC[C@H](NC(=O)c3ccc(NCCCCCCCCCCCNc4ccc5c(c4)C(=O)N(C4CCC(=O)NC4=O)C5=O)cc3)CC2)cc1Cl (some centres unmarked): 7
- CN(c1ccc(C#N)c(Cl)c1)[C@H]1CC[C@H](NC(=O)c2ccc(N3CC(CN4CCN(c5ccc6c(c5)C(=O)N(C5CCC(=O)NC5=O)C6=O)CC4)C3)cc2)CC1 (some centres unmarked): 73
- N#Cc1ccc(O[C@H]2CC[C@H](NC(=O)c3ccc(NCCCCCCCCNc4ccc5c(c4)C(=O)N(C4CCC(=O)NC4=O)C5=O)cc3)CC2)cc1Cl (some centres unmarked): 27
- N#Cc1ccc(O[C@H]2CC[C@H](NC(=O)c3ccc(N4CCN(CCNc5ccc6c(c5)C(=O)N(C5CCC(=O)NC5=O)C6=O)CC4)cc3)CC2)cc1Cl (some centres unmarked): 6

Below: the item to evaluate.
# % AR protein degradation in VCaP Cells of N#Cc1ccc(O[C@H]2CC[C@H](NC(=O)c3ccc(NCCCCCCCCCNc4ccc5c(c4)C(=O)N(C4CCC(=O)NC4=O)C5=O)cc3)CC2)cc1Cl (some centres unmarked) = 6

* * *

Assay: PK parameters in male SD rats
Format: in vivo
Settings: rat, in vivo, IV 2 mg/kg
// values below are reported AUC(0-t)
The reply should be a number in ng·h/mL, with the unit left off.

- CC1(C)[C@H](NC(=O)c2ccc(N3CCN(C4CN(c5ccc6c(c5)C(=O)N(C5CCC(=O)NC5=O)C6=O)C4)CC3)cc2)C(C)(C)[C@H]1Oc1ccc(C#N)c(Cl)c1 (some centres unmarked): 9140

We next turn to a different compound, shown below.
Per the record, CC1(C)[C@H](NC(=O)c2ccc(N3CCN(C4CCN(c5ccc6c(c5)C(=O)N(C5CCC(=O)NC5=O)C6=O)CC4)CC3)cc2)C(C)(C)[C@H]1Oc1ccc(C#N)c(Cl)c1 (some centres unmarked) has AUC(0-t) of 1190
